# assayed_system: T1, human 4-1BB, full length, on transfected cells (human, UniProt Q07011 24-255)
# T1 construct: whole, on cells; also called CHOK1-h4-1BB
# T1 sequence (Q07011 24-255): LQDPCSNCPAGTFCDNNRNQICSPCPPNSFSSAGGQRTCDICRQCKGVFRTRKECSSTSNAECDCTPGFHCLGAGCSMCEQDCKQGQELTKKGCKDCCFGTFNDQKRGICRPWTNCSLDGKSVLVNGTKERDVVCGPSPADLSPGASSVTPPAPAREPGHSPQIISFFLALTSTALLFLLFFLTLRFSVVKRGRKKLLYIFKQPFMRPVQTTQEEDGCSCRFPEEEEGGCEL
# experiment_description: FACS, CHOK1-h4-1BB cells; Ab 0.4 ug/ml
metric_name: average fluorescence intensity
Numeric answer plus unit only.

Solved entries (count: 2):
>  <binder>
113F6C6 (antibody, V domains shown, also called 4-1BB fully human antibody 113F6C6; 113F6F6) VH: QVQLVESGGGVVQPGRSLRLSCAASGLTFSSYGMHWVRQAPGKGLEWVAVIWYDGSNKYYADSVKGRFTISRDNSKNTLYLQMNSLRAEDTAVYYCAREEVLWFGELSYNYYYGMDVWGQGTTVTVSS VL: DIQMTQSPSSLSASVGDRVTITCRASQGISNYLAWYQQKPGKVPKLLIYAASTLQSGVPSRFSGSGSGTDFTLTISSLQPEDVATYYCQKYNSVPLTFGGGTKVEIK

>  <metric_name>
average fluorescence intensity

>  <measurement>
323 MFI

$$$$
>  <binder>
11H10C9 (antibody, V domains shown) VH: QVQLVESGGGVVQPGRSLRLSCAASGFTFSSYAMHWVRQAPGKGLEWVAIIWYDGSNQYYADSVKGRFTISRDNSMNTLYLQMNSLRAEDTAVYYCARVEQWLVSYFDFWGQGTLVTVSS VL: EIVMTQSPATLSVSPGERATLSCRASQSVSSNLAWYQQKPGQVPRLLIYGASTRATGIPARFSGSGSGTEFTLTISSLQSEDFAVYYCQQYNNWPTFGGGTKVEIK

>  <metric_name>
average fluorescence intensity

>  <measurement>
431 MFI

$$$$

Lookup result for 119B6G5 (antibody, V domains shown) VH: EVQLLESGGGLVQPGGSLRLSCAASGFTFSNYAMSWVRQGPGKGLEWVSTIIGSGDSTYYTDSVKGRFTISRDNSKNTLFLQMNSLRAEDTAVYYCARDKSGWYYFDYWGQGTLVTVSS VL: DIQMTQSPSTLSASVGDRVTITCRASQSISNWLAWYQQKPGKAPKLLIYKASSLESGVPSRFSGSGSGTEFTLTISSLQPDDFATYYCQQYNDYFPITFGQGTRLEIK ; measured average fluorescence intensity: 636 MFI
